- assay_details: Nonlinear mixed effect (NLME) compartmental modeling of merged IV and oral serum concentrations
- condition_set: population secondary parameter, mean; for PFOA first peripheral compartment
Answer each item with its documented Volume(s) of the peripheral compartment.
Kindly answer with a numeric value in L/kg, unit omitted.

Name the recorded Volume(s) of the peripheral compartment for CCCCC(CC)COC(=O)c1ccccc1C(=O)O (stereo not shown) [MEHP, mono(2-ethylhexyl)phthalate] .
3.5

Name the recorded Volume(s) of the peripheral compartment for ClC(Cl)=C(c1ccc(Cl)cc1)c1ccc(Cl)cc1 [pp′DDE] .
32

Name the recorded Volume(s) of the peripheral compartment for O=C(O)C(F)(F)C(F)(F)C(F)(F)C(F)(F)C(F)(F)C(F)(F)C(F)(F)F [PFOA, perfluorooctanoic acid] .
0.037

Name the recorded Volume(s) of the peripheral compartment for Cl[C@H]1[C@H](Cl)[C@@H](Cl)[C@H](Cl)[C@@H](Cl)[C@@H]1Cl [β-HCH, β-hexachlorocyclohexane] .
28

Name the recorded Volume(s) of the peripheral compartment for O=S(=O)(O)C(F)(F)C(F)(F)C(F)(F)C(F)(F)C(F)(F)C(F)(F)C(F)(F)C(F)(F)F [nPFOS] .
0.077

Name the recorded Volume(s) of the peripheral compartment for Clc1c(Cl)c(Cl)c(Cl)c(Cl)c1Cl [HCB, hexachlorobenzene] .
20

Name the recorded Volume(s) of the peripheral compartment for Brc1ccc(Oc2ccc(Br)cc2Br)c(Br)c1 [BDE-47, 2,2′,4,4′-tetrabromodiphenyl ether] .
39

====

- assay_details: TK assay, oral mixture dosing: serum concentrations and noncompartmental analysis (sparse data)
- condition_set: female, New Zealand white, rabbit, in vivo, po, Serum concentration, oral, rabbit 16, 0.55 h; MEHP after oral DEHP
reported_metric: concentration at 0.55 h
Please give the number followed by its unit.

Name the recorded concentration at 0.55 h for O=C(O)C(F)(F)C(F)(F)C(F)(F)C(F)(F)C(F)(F)C(F)(F)C(F)(F)F .
2520 nM

====

- assay_details: TK assay, intravenous mixture dosing: serum concentrations and noncompartmental analysis (sparse data)
- condition_set: female, New Zealand white, rabbit, in vivo, iv, Serum concentration, rabbit 12, 0.60 h
reported_metric: concentration at 0.6 h (nM)
Kindly answer with a numeric value in nM, unit omitted.

Name the recorded concentration at 0.6 h for Cl[C@H]1[C@H](Cl)[C@@H](Cl)[C@H](Cl)[C@@H](Cl)[C@@H]1Cl .
270

Name the recorded concentration at 0.6 h for Brc1ccc(Oc2ccc(Br)cc2Br)c(Br)c1 .
1820

====

- assay_details: in vivo
- condition_set: female, New Zealand white, rabbit, in vivo, iv, Serum concentration
Answer each item with its documented concentration at 71.97 h.
Kindly answer with a numeric value in nM, unit omitted.

Name the recorded concentration at 71.97 h for Clc1c(Cl)c(Cl)c(Cl)c(Cl)c1Cl .
4.2

Name the recorded concentration at 71.97 h for ClC(Cl)=C(c1ccc(Cl)cc1)c1ccc(Cl)cc1 .
27

====

Answer each item with its documented bioavailability.
- assay_details: TK assay, oral mixture dosing: serum concentrations and noncompartmental analysis (sparse data)
- condition_set: female, New Zealand white (INRA 1777 line), rabbit, in vivo, po
Kindly answer with a numeric value in %, unit omitted.

Name the recorded bioavailability for Brc1ccc(Oc2ccc(Br)cc2Br)c(Br)c1 .
78

Name the recorded bioavailability for ClC(Cl)=C(c1ccc(Cl)cc1)c1ccc(Cl)cc1 .
62

Name the recorded bioavailability for Clc1c(Cl)c(Cl)c(Cl)c(Cl)c1Cl .
64

Name the recorded bioavailability for Cl[C@H]1[C@H](Cl)[C@@H](Cl)[C@H](Cl)[C@@H](Cl)[C@@H]1Cl .
55
